Test: yeast display, Sf9 membrane polyspecificity reagent, FACS + sequencing; frameworks hold sequencing errors
quantity-kind: polyreactivity (PSR sort gate)

Use the examples below as a reference point.
>  <sequence-chain>
QVQLVESGGGLVQAGGSLRLSCAASGSTFETYAMGWYRQAPGKERELVAVITSDGSTNYADSVKGRFTISRDNAKNTVYLQMNSLKPEDTAGYYCNADYGFYVPAYPIYWIYEYWGQGTQVTVSS

>  <polyreactivity (PSR sort gate)>
low polyreactivity

$$$$
>  <sequence-chain>
QVQLVESGGGLVQAGGSLRLSCAASGRTFVGYAMGWYRQAPGKERELVAAISIGGGRTYYADSVKGRFTISRDNAKNTVYLQMNSLKPEDTAVYYCAAVFRQSNRHGGYDYWGQGTQVTVSS

>  <polyreactivity (PSR sort gate)>
high polyreactivity

$$$$
>  <sequence-chain>
QVQLVESGGGLVQAGGSLRLSCAASGFTIYRYAMGWYRQAPGKERELVASITWSGGSTYYADSVKGRFTISRDNAKNTVYLQMNSLKPEDTAVYYCNALFSWGTGYGSSYGYWGQGTQVTVSS

>  <polyreactivity (PSR sort gate)>
high polyreactivity

$$$$
>  <sequence-chain>
QVQLVQSGGGLVQAGGSLRLSCAASGSTFYYYGMRSYREAPGKEMELFASISWRGGSTYSADSVKGRYTISRDNAKNTVYLQMNSLKPEDTAVYYCAASRRPWYRAVTWNAGDYWGQGTQVTVSS

>  <polyreactivity (PSR sort gate)>
high polyreactivity

$$$$

Prompt: Query (sequence): QVQLVESGGGLVQAGGSLRLTCAASGSTFSVYDMGWYRKAPGKERELVAAIDVTGGSTYYADSVKGRFTISRDNAKNTVSLQMNSLKPEDTAVYYCNAGKCYSLYGMYYWGQGTQVTVSS ; field requested: polyreactivity (PSR sort gate)
Response: low polyreactivity

---

Test: yeast display, Sf9 membrane polyspecificity reagent, FACS + sequencing; frameworks hold sequencing errors
quantity-kind: polyreactivity (PSR sort gate)

Examples from the recorded data:
>  <sequence-chain>
QVQLVESGGGLVQAGGSLRLSCAASGITFRAYALGWYRQAPGKEREFVAAISWRGGSTYYADSVKGRFTISRDNAKNTVYLQMNSLKPEDTAVYYCAVGSYDHDYWYEYWGQGTQVTVSS

>  <test-result>
high polyreactivity

$$$$
>  <sequence-chain>
QVQLVESGGGLVQAGGSLRLTCAASGSIFTTNAKGWYRPAPGTERELVASITWSGGSTYADSVKGRFTISRDNAKYTVYLQMNILKPEDTAVYYGATDPFYPVPPEYEYWGQGTQVTVSS

>  <test-result>
low polyreactivity

$$$$
>  <sequence-chain>
QVQLQESGAGLVQAGGDLRLSCAASGNIFRDYIMGWYRQAPGKEREFVAGIDRGANTNYADSVKGRFTISRDNAKNTVYLQMNSLKPEDTAVYYCAVHTAIVPDFIYWGQGTQVTVSS

>  <test-result>
low polyreactivity

$$$$
>  <sequence-chain>
QVQLVESGGGLVQAGGSLRLSCAASGSIFDNYAMGCYRQAPRKERELVAAINFSDGDTYYGDSVKGRFTISRDNAKNTVYLQMNSLKPEDTAVYYCAAEVWYPPEYYDEYDYWGQGTQVTVSS

>  <test-result>
low polyreactivity

$$$$

Prompt: For QVQLVESGGGLVQAGGSLRLSCAASGRIFNLYAMGWYRQAPGKERELVAGISWSGGDTTYADSVKGRFTISRDNAKNTVYLQMNSLKPEDTAVYYCNKRAYLDYGGRGYNYWGQGTRVTVSS , what is its reported polyreactivity (PSR sort gate)?
Response: low polyreactivity

Prompt: Dear colleague, I am looking for the recorded polyreactivity (PSR sort gate) of the following sequence: QVQLVESGGGLVQAGGSLRLSCAASGSTFSFYDMGWSRQAPGKEPELVAAITGSGGTTYYADSVKVRFTISRDNAKNTVYFQMNILKPEDTAFYYCAADSLESYPDYEYDFWGQGTQVTVSS
Response: low polyreactivity

Prompt: Using the record for QVQLVESGGGLVQAGGSLRLSCAASGSTFREYTMGWYRQAPGKERELVAAITNSGGSTYYADSVKGRFTISRDNAKNTVYLQMNSLKPEDTAVYYCAAEVGIVDYDYWGQGTQVTVSS , report its polyreactivity (PSR sort gate).
Response: low polyreactivity

Prompt: For the sequence shown here, QVQLVESGGGLVQAGGSLRLSCAASGRTFWFNDMGWYRQAPGKERELVAAISDTDGSTYYADSVKGLFTISRDNAKNTVYLQMNSLKPEDTAVYYCAAEAYYGYLYAYDYWGQGTQVTVSS , give the reported polyreactivity (PSR sort gate).
Response: low polyreactivity

Prompt: Need polyreactivity (PSR sort gate), item QVQLVESGGGLVHAGGSLRLSCAASGRTFGTYAKGWYRQAPGKERELVAAISSRGGSTYYADSVKGRFTISRDNAKNTVYLQMNSLKPEDTAVYYCAQRVKDGSGYWGQGTQVTVSS
Response: high polyreactivity

Prompt: Given the entry QVQLVESGGGLVQAGGSLRLSCAASGRTFESYAMGWYRPAPGKERELVAAITWSGGDTYYADSVKGRFTISRDNAKNTVYLQMNSLKPEDTAVYYCAKEQGLYSVSPYDYWGQGTQVTVSS , report its measured polyreactivity (PSR sort gate).
Response: low polyreactivity

Prompt: Would you mind telling me what polyreactivity (PSR sort gate) value was observed for QVQLVESGGGLVQAGGSLRLSCAASGRTFYIYAMGWYRQAPGKERELVAAITYGGGRTFYADSVKGRFTISRDNAKNTVYLQMNSLKPEDTAVYYCAATVRGKRSTYDYWGQGTQVTVSS ?
Response: high polyreactivity
